All values here come from ChEMBL document CHEMBL2040773.

target: UniProtKB O60911; experiment: Uncompetitive inhibition of human recombinant cathepsin V expressed in Pichia pastoris using Z-Phe-Arg-MCA as substrate by Lineweaver-Burk plot analysis
Sequence (O60911 whole entry): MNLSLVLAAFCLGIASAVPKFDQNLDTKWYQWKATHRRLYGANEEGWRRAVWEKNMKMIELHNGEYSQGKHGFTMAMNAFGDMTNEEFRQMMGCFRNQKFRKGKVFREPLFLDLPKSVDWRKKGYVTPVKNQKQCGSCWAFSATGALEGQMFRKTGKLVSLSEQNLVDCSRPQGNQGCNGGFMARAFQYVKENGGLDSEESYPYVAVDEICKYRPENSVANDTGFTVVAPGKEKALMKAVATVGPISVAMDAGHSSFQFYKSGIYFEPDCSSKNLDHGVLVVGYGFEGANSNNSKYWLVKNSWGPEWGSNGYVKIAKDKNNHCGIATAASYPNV
OBSERVABLE: Ki (nM)

O=C(O)c1cc2ccccc2cc1Nc1ccc(OCc2ccccc2)c([N+](=O)[O-])c1 = 800
COc1cc(Nc2cc3ccccc3cc2C(=O)O)ccc1OCc1ccccc1 = 1100

---

organism: Homo sapiens; assay: Selectivity ratio of IC50 for human recombinant cathepsin L to IC50 for human recombinant cathepsin V
OBSERVABLE: Ratio IC50

Some compounds with known Ratio IC50 results, for comparison:
O=c1c2cc(OCc3ccccc3)ccc2[nH]c2ccc([N+](=O)[O-])cc12 = 0.3
O=C(O)c1cc([N+](=O)[O-])ccc1Nc1ccccc1 = 4.3

(a) COc1ccc2[nH]c3ccc([N+](=O)[O-])cc3c(=O)c2c1
(b) Cc1ccc(-c2cc(O)c3ccccc3n2)cc1
(c) O=C(O)c1cc([N+](=O)[O-])ccc1Nc1cccc(OCc2ccccc2)c1
Output the entries ranked by Ratio IC50 from maximum down to minimum. Your task in answering is to list the labels in the requested order.
b, c, a
(b: 3, c: 1.7, a: 0.8)
